Sourced from patent US7473711B2

# system: androgen receptor in MDA-MB453-MMTV clone 54-19 cells (Homo sapiens)
# Sequence (P10275 whole entry Q868H, form open): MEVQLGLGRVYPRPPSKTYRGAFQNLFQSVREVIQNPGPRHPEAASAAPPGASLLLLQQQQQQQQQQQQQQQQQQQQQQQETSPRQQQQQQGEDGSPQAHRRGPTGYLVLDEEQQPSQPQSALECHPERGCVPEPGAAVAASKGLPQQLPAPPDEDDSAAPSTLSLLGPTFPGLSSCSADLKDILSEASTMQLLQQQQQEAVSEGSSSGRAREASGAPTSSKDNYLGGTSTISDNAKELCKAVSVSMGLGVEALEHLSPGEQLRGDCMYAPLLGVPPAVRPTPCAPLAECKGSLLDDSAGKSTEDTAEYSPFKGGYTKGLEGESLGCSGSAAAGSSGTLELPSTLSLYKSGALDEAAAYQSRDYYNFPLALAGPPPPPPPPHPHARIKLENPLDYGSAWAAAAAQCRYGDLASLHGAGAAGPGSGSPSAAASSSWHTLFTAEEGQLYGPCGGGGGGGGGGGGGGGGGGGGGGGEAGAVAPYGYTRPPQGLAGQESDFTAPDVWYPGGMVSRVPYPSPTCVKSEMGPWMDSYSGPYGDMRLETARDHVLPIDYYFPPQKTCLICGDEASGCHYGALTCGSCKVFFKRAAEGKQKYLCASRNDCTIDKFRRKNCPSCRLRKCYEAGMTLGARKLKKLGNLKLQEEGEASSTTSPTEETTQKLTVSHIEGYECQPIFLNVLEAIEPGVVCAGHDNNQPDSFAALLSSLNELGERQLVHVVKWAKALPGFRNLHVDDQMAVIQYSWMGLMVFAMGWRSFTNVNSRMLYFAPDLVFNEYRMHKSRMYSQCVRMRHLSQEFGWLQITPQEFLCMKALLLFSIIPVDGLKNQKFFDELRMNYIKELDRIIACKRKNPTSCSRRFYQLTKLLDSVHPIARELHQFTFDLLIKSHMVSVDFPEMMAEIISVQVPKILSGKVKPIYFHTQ
# protocolDescription: AR antagonist cell assay (MMTV-luciferase reporter, 100 pM DHT)
# Type: cell-based
# settings: read-out: AR Cell IC50; MDA-MB453-MMTV clone 54-19, inhibition of 100 pM DHT induced luciferase, 17 hr; mean of multiple tests
experimentalReadout: IC50 (µM)

> print(dat)
                                   compound  valueunits  numericresult
1  COC[C@H](COc1ccccc1)Oc1ccc(C#N)c(C(F)(F)F)c1          µM           0.04
2  COCC(COc1ccccc1)Oc1ccc(C#N)c(C(F)(F)F)c1 (stereo not drawn)          µM          0.019
3  C[C@@H](Oc1ccc(C#N)c(C(F)(F)F)c1)[C@@H](C)Oc1ccc(C#N)c(C(F)(F)F)c1          µM          0.067
4  N#Cc1ccc(OCCCCCOc2ccc(C#N)c(C(F)(F)F)c2)cc1C(F)(F)F          µM          0.064
5  CC(CCOc1ccc(C#N)c(C(F)(F)F)c1)Oc1ccc(C#N)c(C(F)(F)F)c1 (stereo not drawn)          µM            0.1
6  N#Cc1ccc(OC(CO)COc2ccccc2)cc1C(F)(F)F (stereo not drawn)          µM          0.069

* * *

# system: androgen receptor in MDA-MB453-MMTV clone 54-19 cells (Homo sapiens)
# protocolDescription: AR antagonist cell assay (MMTV-luciferase reporter, 100 pM DHT)
# Type: cell-based
# settings: MDA-MB453-MMTV clone 54-19, inhibition of 100 pM DHT induced luciferase, 17 hr; mean of multiple tests; read-out: AR Cell IC50
pIC50: −log10 of the molar value.
Entries and their pIC50
experimentalReadout: pIC50

> print(dat)
                                    molecule  experimentalreadout  rel  numericresult
 1  CCCC(Oc1ccc(C#N)c(C(F)(F)F)c1)C(CC)COc1ccc(C#N)c(C(F)(F)F)c1 (stereo not drawn)                pIC50    <           6.00
 2  CCCC(CCCOc1ccc(C#N)c(C(F)(F)F)c1)Oc1ccc(C#N)c(C(F)(F)F)c1 (stereo not drawn)                pIC50    <           6.00
 3  CC(CCOc1ccc(C#N)c(C(F)(F)F)c1)CCOc1ccc(C#N)c(C(F)(F)F)c1                pIC50    =           6.67
 4  COC[C@@H](COc1ccccc1)Oc1ccc(C#N)c(C(F)(F)F)c1                pIC50    =           6.90
 5  N#Cc1ccc(O[C@H](CO)COc2ccccc2)cc1C(F)(F)F                pIC50    =           6.93
 6  CCOCC(COc1ccc(C#N)c(C(F)(F)F)c1)Oc1ccc(C#N)c(C(F)(F)F)c1 (stereo not drawn)                pIC50    <           6.00
 7  N#Cc1ccc(OCCCOc2ccc(C#N)c(C(F)(F)F)c2)cc1C(F)(F)F                pIC50    <           6.00
 8  CC1(C)CC1(COc1ccc(C#N)c(C(F)(F)F)c1)Oc1ccc(C#N)c(C(F)(F)F)c1 (stereo not drawn)                pIC50    =           6.35
 9  CC(C)(CCOc1ccc(C#N)c(C(F)(F)F)c1)Oc1ccc(C#N)c(C(F)(F)F)c1                pIC50    <           6.00
10  CCCC(COc1ccc(C#N)c(C(F)(F)F)c1)Oc1ccc(C#N)c(C(F)(F)F)c1 (stereo not drawn)                pIC50    <           6.00
11  COCC(COc1ccc(C#N)c(C(F)(F)F)c1)Oc1ccc(C#N)c(C(F)(F)F)c1 (stereo not drawn)                pIC50    =           6.73
12  CC(C)NCC(COc1ccc(C#N)c(C(F)(F)F)c1)Oc1ccc(C#N)c(C(F)(F)F)c1 (stereo not drawn)                pIC50    <           6.00
13  CC(CCC(C)Oc1ccc(C#N)c(C(F)(F)F)c1)Oc1ccc(C#N)c(C(F)(F)F)c1 (stereo not drawn) [Example 22]                pIC50    =           6.49
14  CC(CCC(C)Oc1ccc(C#N)c(C(F)(F)F)c1)Oc1ccc(C#N)c(C(F)(F)F)c1 (stereo in doubt) [Example 23]                pIC50    =           6.69
15  CCCCCCC(COc1ccc(C#N)c(C(F)(F)F)c1)Oc1ccc(C#N)c(C(F)(F)F)c1 (stereo not drawn)                pIC50    =           6.27
16  C=CCC(CCOc1ccc(C#N)c(C(F)(F)F)c1)Oc1ccc(C#N)c(C(F)(F)F)c1 (stereo not drawn)                pIC50    <           6.00
17  CC(COc1ccc(C#N)c(C(F)(F)F)c1)COc1ccc(C#N)c(C(F)(F)F)c1                pIC50    <           6.00
18  C[C@@H](C[C@H](C)Oc1ccc(C#N)c(C(F)(F)F)c1)Oc1ccc(C#N)c(C(F)(F)F)c1 (stereo in doubt)                pIC50    =           6.80
19  C[C@@H](CCOc1ccc(C#N)c(C(F)(F)F)c1)Oc1ccc(C#N)c(C(F)(F)F)c1                pIC50    =           6.59
20  CC(CCCCOc1ccc(C#N)c(C(F)(F)F)c1)Oc1ccc(C#N)c(C(F)(F)F)c1 (stereo not drawn)                pIC50    <           6.00
21  C=CC(COc1ccc(C#N)c(C(F)(F)F)c1)Oc1ccc(C#N)c(C(F)(F)F)c1 (stereo not drawn)                pIC50    =           6.34
22  C[C@H](CCOc1ccc(C#N)c(C(F)(F)F)c1)Oc1ccc(C#N)c(C(F)(F)F)c1                pIC50    =           6.04
23  CC(C)CCCC(COc1ccc(C#N)c(C(F)(F)F)c1)Oc1ccc(C#N)c(C(F)(F)F)c1 (stereo not drawn)                pIC50    <           6.00
24  C[C@H](Oc1ccc(C#N)c(C(F)(F)F)c1)[C@H](C)Oc1ccc(C#N)c(C(F)(F)F)c1                pIC50    =           6.27
